Tested on: C2C12
assay remarks: Cytotoxicity against mouse C2C12 cells assessed as reduction in cell viability at 0.78 to 100 uM measured after 24 hrs by MTT assay
Assay type: toxicity, cell-based
condition details: c2c12, 24 h, dose 0.78-100 µM

# line notation, Activity
rows = [
    ("CS(=O)(=O)c1ccc2nc(Nc3ccc(C(F)(F)F)cc3)ncc2c1", "Toxic"),
    ("CCS(=O)(=O)c1ccc2nc(NCc3ccc(C(C)(C)C)cc3)ccc2c1", "Toxic"),
    ("COc1cc(CNc2ncc3cc(S(C)(=O)=O)ccc3n2)cc(OC)c1", "Toxic"),
    ("CS(=O)(=O)c1ccc2nc(Nc3cc(O)cc(O)c3)ccc2c1", "Toxic"),
    ("COc1cc(Nc2ccc3cc(S(C)(=O)=O)ccc3n2)cc(OC)c1", "Toxic"),
    ("COc1cc(CNc2ccc3cc(S(C)(=O)=O)ccc3n2)cc(OC)c1", "Toxic"),
    ("CCS(=O)(=O)c1ccc2nc(Nc3ccc(C(C)(C)C)cc3)ccc2c1", "Toxic"),
    ("CS(=O)(=O)c1ccc2nc(Nc3ccc(F)cc3)ncc2c1", "Toxic"),
    ("CCS(=O)(=O)c1ccc2nc(NCc3ccc(C(F)(F)F)cc3)ccc2c1", "Toxic"),
    ("CS(=O)(=O)c1ccc2nc(NCc3ccc(F)cc3)ccc2c1", "Toxic"),
    ("CCS(=O)(=O)c1ccc2cnc(NCc3ccc(F)cc3)nc2c1", "Toxic"),
    ("CCS(=O)(=O)c1ccc2nc(Nc3ccc(F)cc3)ccc2c1", "Toxic"),
    ("CCS(=O)(=O)c1ccc2nc(NCc3ccc(C(F)(F)F)cc3)ncc2c1", "Toxic"),
    ("CCS(=O)(=O)c1ccc2nc(Nc3ccc(O)cc3)ccc2c1", "Toxic"),
    ("CCS(=O)(=O)c1ccc2nc(Nc3cc(O)cc(O)c3)ccc2c1", "Toxic"),
    ("CCS(=O)(=O)c1ccc2nc(Nc3ccc(C(F)(F)F)cc3)ccc2c1", "Toxic"),
    ("CCS(=O)(=O)c1ccc2nc(NCc3ccc(OC)cc3)ncc2c1", "Toxic"),
    ("COc1ccc(CNc2ccc3cc(S(C)(=O)=O)ccc3n2)cc1", "Toxic"),
    ("CS(=O)(=O)c1ccc2nc(Nc3ccc(O)cc3)ncc2c1", "Toxic"),
    ("CCS(=O)(=O)c1ccc2nc(NCc3ccc(O)cc3)ccc2c1", "Toxic"),
    ("CS(=O)(=O)c1ccc2nc(NCc3ccc(C(F)(F)F)cc3)ccc2c1", "Toxic"),
    ("CCS(=O)(=O)c1ccc2nc(Nc3ccc(C(F)(F)F)cc3)ncc2c1", "Toxic"),
    ("CCS(=O)(=O)c1ccc2nc(Nc3ccc(OC)cc3)ccc2c1", "Toxic"),
    ("COc1ccc(Nc2ccc3cc(S(C)(=O)=O)ccc3n2)cc1", "Toxic"),
    ("CC(C)(C)c1ccc(CNc2ccc3cc(S(C)(=O)=O)ccc3n2)cc1", "Toxic"),
]

Entry source: ChEMBL document CHEMBL5506058
